inhibition at 20 µM for assorted compounds
System tested: human SOS1 (loading of human K-Ras^G12C-GDP with fluorescent GTP-analog) (Homo sapiens)
Measurement notes: Biochemical assay 3: K-Ras^G12C activation assay by hSOS1 (HTRF)
Setup conditions: read-out: Assay 3 (KRAS-Activation by SOS no GTP) activity expressed as % inhibition at 20 μM; no GTP; at 20 μM
Unit % implied. Number only.

Take a look at these entries with their results.
Compound	Unit descriptor	inhibition at 20 µM
COc1cc2nc(C)nc(N[C@@H](C)c3ccc(-c4ccc(-c5nnc(C)o5)cc4)s3)c2cc1OC (stereo in doubt)	%	16
COc1cc2nc(C)nc(NC(C)c3cc4ccccc4o3)c2cc1OC (stereo not shown)	%	41
COc1cc2nc(C)nc(N[C@@H](C)c3ccc(-c4cccc(CNS(C)(=O)=O)c4)s3)c2cc1OC (stereo in doubt)	%	41

Qu. Reported inhibition at 20 µM for COc1cc2nc(C)nc(N[C@@H](C)c3ccc(-c4cncc(S(C)(=O)=O)c4)s3)c2cc1OC (racemic) : what is it?
Ans. 42

Qu. Reported inhibition at 20 µM for COc1cc2nc(C)nc(N[C@@H](C)c3ccc(-c4cccc(OCC5CC5)c4)s3)c2cc1OC (stereo in doubt) : what is it?
Ans. 15

Qu. Reported inhibition at 20 µM for CCCOc1ccccc1-c1ccc([C@H](C)Nc2nc(C)nc3cc(OC)c(OC)cc23)s1 (stereo in doubt) : what is it?
Ans. 17

Qu. Reported inhibition at 20 µM for COc1cc2nc(C)nc(N[C@H](C)c3ccc(C4=CCN(C)CC4)cc3)c2cc1OC : what is it?
Ans. 50

Qu. Reported inhibition at 20 µM for COC(=O)c1cc(-c2ccc(C(C)Nc3nc(C)nc4cc(OC)c(OC)cc34)s2)nn1C (stereo not shown) : what is it?
Ans. 10
